The reported measurements were obtained from paper PMC548358.

Target: T1, Trx-mMUTYH wild type (Mus musculus, UniProt Q99P21 1-515)
T1 sequence: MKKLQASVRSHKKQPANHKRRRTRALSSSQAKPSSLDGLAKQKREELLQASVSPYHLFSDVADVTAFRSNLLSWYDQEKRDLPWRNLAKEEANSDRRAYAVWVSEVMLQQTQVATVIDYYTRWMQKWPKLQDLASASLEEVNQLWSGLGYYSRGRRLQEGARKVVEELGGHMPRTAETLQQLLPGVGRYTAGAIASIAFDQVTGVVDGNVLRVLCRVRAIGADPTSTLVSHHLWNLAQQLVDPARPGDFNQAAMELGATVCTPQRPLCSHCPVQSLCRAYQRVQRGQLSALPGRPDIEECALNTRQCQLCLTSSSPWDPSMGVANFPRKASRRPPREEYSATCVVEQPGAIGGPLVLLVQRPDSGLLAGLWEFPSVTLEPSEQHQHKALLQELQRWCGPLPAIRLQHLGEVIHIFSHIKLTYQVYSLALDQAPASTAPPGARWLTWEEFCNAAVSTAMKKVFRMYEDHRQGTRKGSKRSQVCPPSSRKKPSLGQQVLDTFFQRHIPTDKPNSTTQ
Assay: EMSA
assay.endpoint: binding result

Would you please look over these solved cases?
binder	binding result
*A:GO (dsDNA, 8-oxoguanine at strand 2 position 16, opposite A20 of strand 1) DNA 1: AGCGGCCATCGATACCGTCAACCTCGAGGAATTCC DNA 2: GGAATTCCTCGAGGTGGACGGTATCGATGGCCGCT	binds
*AO:GO (dsDNA, 2-hydroxyadenine at strand 1 position 20; 8-oxoguanine at strand 2 position 16) DNA 1: AGCGGCCATCGATACCGTCAACCTCGAGGAATTCC DNA 2: GGAATTCCTCGAGGTGGACGGTATCGATGGCCGCT	binds
*AO:G (dsDNA, 2-hydroxyadenine at strand 1 position 20, opposite G16 of strand 2) DNA 1: AGCGGCCATCGATACCGTCAACCTCGAGGAATTCC DNA 2: GGAATTCCTCGAGGTGGACGGTATCGATGGCCGCT	no binding
*AO:T (dsDNA, 2-hydroxyadenine at strand 1 position 20, opposite T16 of strand 2) DNA 1: AGCGGCCATCGATACCGTCAACCTCGAGGAATTCC DNA 2: GGAATTCCTCGAGGTTGACGGTATCGATGGCCGCT	no binding

# next binder below
Please look at this binder and report its binding result: *A:G (dsDNA) DNA 1: AGCGGCCATCGATACCGTCAACCTCGAGGAATTCC DNA 2: GGAATTCCTCGAGGTGGACGGTATCGATGGCCGCT no binding
